Origin of values: ChEMBL document CHEMBL5096206

System: MDA-MB-231
Test: Antiproliferative activity against human MDA-MB-231 cells assessed as cell growth inhibition
Type: functional, cell-based
Metric: IC50 (µM)
Report as a plain number; the unit µM is understood.

Which IC50 value is on record for CCCC(=O)[O-].[Na+] [SODIUM BUTYRATE] ?
600

---

System: HepG2
Assay: cells
Settings: Homo sapiens, HepG2, 72 h
Description: Antiproliferative activity against human HepG2 cells assessed as cell growth inhibition measured after 72 hrs by MTT assay
Metric: pIC50
As a rule, pIC50 stands for the negative log10 of the concentration, concentration in M.

Which pIC50 value is on record for `O=C(/C=C/c1cc2ccc1CCc1ccc(cc1)CC2)c1ccc(NC(=O)c2ccc(CN3C(=O)c4ccccc4C3=O)cc2)cc1` ?
5.07

Which pIC50 value is on record for `O=C(/C=C/C1Oc2ccccc2O1)c1ccc(NC(=O)c2ccc(CN3C(=O)c4ccccc4C3=O)cc2)cc1` ?
5.71

Which pIC50 value is on record for `Cc1cc(/C=C/C(=O)c2ccc(NC(=O)c3ccc(CN4C(=O)c5ccccc5C4=O)cc3)cc2)cc(C)c1C` ?
5.79

Which pIC50 value is on record for `O=C(/C=C/c1ccc([N+](=O)[O-])cc1)c1ccc(NC(=O)c2ccc(CN3C(=O)c4ccccc4C3=O)cc2)cc1` ?
4.80

Which pIC50 value is on record for `O=C(/C=C/c1ccc(Cl)cc1)c1ccc(NC(=O)c2ccc(CN3C(=O)c4ccccc4C3=O)cc2)cc1` ?
5.49

Which pIC50 value is on record for `O=C(/C=C/c1ccccc1)c1ccc(NC(=O)c2ccc(CN3C(=O)c4ccccc4C3=O)cc2)cc1` ?
4.89
